assay: recombinant barcode read abundance after kanamycin selection (control-corrected) (log10(CPM+1)); higher = more efficient recombination; sequences stand for … in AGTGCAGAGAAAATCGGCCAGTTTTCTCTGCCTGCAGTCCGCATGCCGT…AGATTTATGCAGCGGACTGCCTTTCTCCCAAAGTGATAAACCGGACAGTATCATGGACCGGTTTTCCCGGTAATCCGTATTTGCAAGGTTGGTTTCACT; site = the 11-nt target
value.type: recombinant barcode read abundance (log10)
Give the figure only, with no unit attached.

* TGACCTTCTTGGGTTCTAACCTGTTGCCT (site TGACCTTCTAG) | 0.526
* TCTAGAGCTTGGGTTCTAACCTGTTGCCT (site TCTAGACCTAG) | 0.228
* GTAACTGCTTGGGTTCTAACCTGTTGCCT (site GTAATTGCTAG) | 0.0184

Prompt line: Please report the recorded recombinant barcode read abundance (log10) for TGGTATTCTTGGGTTCTAACCTGTTGCCT (site TGGTATCCTAG) .
Response line: 0.113

Prompt line: What value of recombinant barcode read abundance (log10) has been reported for the following sequence? GCGGTGACTTGGGTTCTAACCTGTTGCCT (site TCGGTGACTAG)
Response line: 0.074

----------
assay: recombinant UMI read abundance after kanamycin selection (control-corrected) (log10(CPM+1)); higher = more efficient recombination; extreme values may be limits of the assay; sequences stand for … in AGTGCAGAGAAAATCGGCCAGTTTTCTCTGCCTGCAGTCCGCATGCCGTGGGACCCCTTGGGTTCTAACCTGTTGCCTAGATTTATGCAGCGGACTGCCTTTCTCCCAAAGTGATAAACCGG…AGGTTGGTTTCACT; site = the 11-nt donor
value.type: recombinant UMI read abundance (log10)
Please give only the number in your answer, with no unit.

Worked set:
• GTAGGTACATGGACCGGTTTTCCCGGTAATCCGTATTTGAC (site ATAGGTACTGT) = 2.02
• CCGTGAGCATGGACCGGTTTTCCCGGTAATCCGTATTTGTG (site CCGTGAGCTCA) = 0.568

Prompt line: Quick one: recombinant UMI read abundance (log10) for AAAGTCTCATGGACCGGTTTTCCCGGTAATCCGTATTTGCA (site AAAGTCTCTTG) ?
Response line: 3.16

----------
assay: recombinant barcode read abundance after kanamycin selection (control-corrected) (log10(CPM+1)); higher = more efficient recombination; sequences stand for … in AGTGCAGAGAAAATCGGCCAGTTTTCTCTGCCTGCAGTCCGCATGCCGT…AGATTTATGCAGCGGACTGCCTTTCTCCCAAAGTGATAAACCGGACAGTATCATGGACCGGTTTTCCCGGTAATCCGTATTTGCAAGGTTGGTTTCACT; site = the 11-nt target
Some sequences, each annotated with its measured recombinant barcode read abundance (log10).
Output: the number by itself.

// known answers, use as guide
* CGGGCCTCTTGGGTTCTAACCTGTTGCTT (site CGGGCCTCTCA) | 0.148
* CCGTTATCTTGGGTTCTAACCTGTTGCCT (site CCGATATCTAG) | 0.0227
* TCGCACTCTTGGGTTCTAACCTGTTGCCT (site TCGCACTCTAG) | 0.0694

Prompt line: Entry TAGGGGACTTGGGTTCTAACCTGTTGCAA (site CGTCCTGCTAA) has what recombinant barcode read abundance (log10)?
Response line: 0.0997

Prompt line: Entry under review: TAGAACTCTTGGGTTCTAACCTGTTGCCT (site TAGAACTCTGG) . Reported recombinant barcode read abundance (log10)?
Response line: 0.156

Prompt line: Which recombinant barcode read abundance (log10) value belongs to CCGCTAGCTTGGGTTCTAACCTGTTGCCT (site ACGCTAGCTAG) ?
Response line: 0.0362

----------
test: recombinant UMI read abundance after kanamycin selection (control-corrected) (log10(CPM+1)); higher = more efficient recombination; extreme values may be limits of the assay; sequences stand for … in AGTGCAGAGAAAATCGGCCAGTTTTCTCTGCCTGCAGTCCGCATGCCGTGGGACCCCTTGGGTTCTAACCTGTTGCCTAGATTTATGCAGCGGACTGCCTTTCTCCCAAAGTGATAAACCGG…AGGTTGGTTTCACT; site = the 11-nt donor
# label = true (1) if recombinant UMI read abundance (log10) >= 0.4 else false (0)

Record excerpt, results attached:
- CGTGGAACATGGACCGGTTTTCCCGGTAATCCGTATTTGCG (site CGTGGAACTCG): true (1)
- GGCTCAACATGGACCGGTTTTCCCGGTAATCCGTATTTGCT (site GGCTCAACTAG): false (0)
- GATGTGTCATGGACCGGTTTTCCCGGTAATCCGTATTTGAA (site GATGTGTCTTT): true (1)
- TGTAAGACATGGACCGGTTTTCCCGGTAATCCGTATTTGCG (site TGTAAGACTCG): true (1)
- ATCCTATCATGGACCGGTTTTCCCGGTAATCCGTATTTGAC (site ATCCTATCTGT): true (1)
- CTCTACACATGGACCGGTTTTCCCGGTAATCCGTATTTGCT (site CACTACACTAG): true (1)
- GTGGTCGCATGGACCGGTTTTCCCGGTAATCCGTATTTGCG (site GTTGTCGCTCG): false (0)
- GACAAACCATGGACCGGTTTTCCCGGTAATCCGTATTTGGG (site GACAAACCTAC): false (0)
- TAGAATTCATGGACCGGTTTTCCCGGTAATCCGTATTTGCA (site TAGAATGCTTG): false (0)
- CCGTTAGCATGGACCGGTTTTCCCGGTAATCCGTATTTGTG (site CCGTTAGCTGA): false (0)

Here's the next entry for you.
Prompt line: // inclusive: recombinant UMI read abundance (log10) at least 0.4? input: AAGGTTACATGGACCGGTTTTCCCGGTAATCCGTATTTGAA (site AAGGTTACTTT)
Response line: true (1)

----------
test: recombinant barcode read abundance after kanamycin selection (control-corrected) (log10(CPM+1)); higher = more efficient recombination; sequences stand for … in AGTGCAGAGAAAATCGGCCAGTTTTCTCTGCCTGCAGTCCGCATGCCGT…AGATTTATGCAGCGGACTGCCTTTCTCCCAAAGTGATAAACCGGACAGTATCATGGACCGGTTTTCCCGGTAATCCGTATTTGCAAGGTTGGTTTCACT; site = the 11-nt target
I would appreciate it if you labelled entries YES when recombinant barcode read abundance (log10) is 0.2 or higher, otherwise NO.

• CCGTAAACTTGGGTTCTAACCTGTTGCCT (site CCGTAAGCTAG) = YES
• TCAGAATCTTGGGTTCTAACCTGTTGCCT (site TCAGCATCTAG) = NO
• CTCTACACTTGGGTTCTAACCTGTTGCCA (site CTCTAGACTTG) = NO
• TTAGACCCTTGGGTTCTAACCTGTTGCCT (site TTAGACCCTAG) = YES
• TCCCACTCTTGGGTTCTAACCTGTTGCCT (site TCACACTCTAG) = NO
• GTTAGCCCTTGGGTTCTAACCTGTTGCAT (site GTTAGCCCTAT) = YES
• TATGGAGCTTGGGTTCTAACCTGTTGCAG (site TATGGAGCTCT) = YES
• AAGCAGTCTTGGGTTCTAACCTGTTGCCT (site AAGCATTCTAG) = NO

Prompt line: # bool: recombinant barcode read abundance (log10) of CAGCCACCTTGGGTTCTAACCTGTTGCCT (site TAGCCACCTAG) >= 0.2
Response line: NO

----------
Quick reference: recombinant UMI read abundance (log10) of the listed items.
assay: recombinant UMI read abundance after kanamycin selection (control-corrected) (log10(CPM+1)); higher = more efficient recombination; extreme values may be limits of the assay; sequences stand for … in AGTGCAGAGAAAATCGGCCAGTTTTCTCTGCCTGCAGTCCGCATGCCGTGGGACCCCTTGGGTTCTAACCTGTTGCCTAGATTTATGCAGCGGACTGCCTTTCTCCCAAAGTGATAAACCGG…AGGTTGGTTTCACT; site = the 11-nt donor

Previously resolved entries follow.
• ACTAGACCATGGACCGGTTTTCCCGGTAATCCGTATTTGAG (site ACTAGATCTCT) = 1.02
• GCGAAGGCATGGACCGGTTTTCCCGGTAATCCGTATTTGGG (site GCGAAGACTCC) = 0.255

Prompt line: For the sequence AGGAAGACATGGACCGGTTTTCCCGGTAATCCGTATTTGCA (site AGGACGACTAG) , what recombinant UMI read abundance (log10) is on record?
Response line: 0.0203

----------
experiment: recombinant UMI read abundance after kanamycin selection (control-corrected) (log10(CPM+1)); higher = more efficient recombination; extreme values may be limits of the assay; sequences stand for … in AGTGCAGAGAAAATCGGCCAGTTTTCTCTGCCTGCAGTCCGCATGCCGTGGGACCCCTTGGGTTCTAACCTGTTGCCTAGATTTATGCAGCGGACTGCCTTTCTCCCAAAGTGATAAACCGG…AGGTTGGTTTCACT; site = the 11-nt donor
value.type: recombinant UMI read abundance (log10)

# annotated cases, reported recombinant UMI read abundance (log10) shown
- TCGAATTCATGGACCGGTTTTCCCGGTAATCCGTATTTGCC (site TCAAATTCTGG): 0
- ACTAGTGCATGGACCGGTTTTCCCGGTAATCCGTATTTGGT (site ACTAGTGCTGC): 0
- GTGGAGGCATGGACCGGTTTTCCCGGTAATCCGTATTTGAG (site GTGGAGGCTCG): 0.681
- CCATGACCATGGACCGGTTTTCCCGGTAATCCGTATTTGGA (site CCATGACCTTC): 0.023
- GTGCGTGCATGGACCGGTTTTCCCGGTAATCCGTATTTGGT (site GTGCCTGCTAC): 0.00736
- TCATAGTCATGGACCGGTTTTCCCGGTAATCCGTATTTGCA (site TCATACTCTTG): 0.653
- AGGAATGCATGGACCGGTTTTCCCGGTAATCCGTATTTGCA (site AGGAATGCTTG): 1.74
- AGGAGCACATGGACCGGTTTTCCCGGTAATCCGTATTTGCA (site AGGAAGACTTG): 0

Prompt line: Given the sequence TCTTTGGCATGGACCGGTTTTCCCGGTAATCCGTATTTGTG (site TCTTTGGCTCA) , what is its reported recombinant UMI read abundance (log10)?
Response line: 0.0151

Prompt line: Can you look up the measured recombinant UMI read abundance (log10) of GGAACTACATGGACCGGTTTTCCCGGTAATCCGTATTTGCC (site GGAACTACTGG) for me?
Response line: 1.05
